measurement_target: T1, human C5a receptor (C5aR) (human, UniProt P21730 1-350)
T1 construct: human C5a receptor (C5aR), expressed on transfected RBL-2H3 or CHO cells; also called hC5aR; RBL-C5aR; source: RBL-2H3 or CHO cells, transfected by electroporation, on cells
T1 sequence: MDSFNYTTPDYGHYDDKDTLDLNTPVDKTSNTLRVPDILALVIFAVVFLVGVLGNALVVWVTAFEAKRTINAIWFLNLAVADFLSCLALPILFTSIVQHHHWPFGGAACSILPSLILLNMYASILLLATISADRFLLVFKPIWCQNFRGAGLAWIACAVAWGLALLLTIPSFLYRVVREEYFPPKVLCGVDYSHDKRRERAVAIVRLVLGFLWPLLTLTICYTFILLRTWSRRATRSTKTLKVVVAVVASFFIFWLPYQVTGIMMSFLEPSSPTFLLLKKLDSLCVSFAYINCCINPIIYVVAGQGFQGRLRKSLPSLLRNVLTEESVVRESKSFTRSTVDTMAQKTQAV
protocol_details: flow cytometry on cells; competition: RBL cells transfected with human C5aR pre-treated with unlabelled CHIPS or human C5a, then 210 nM FITC-rCHIPS(28-149); cell-associated fluorescence
recorded_conditions: one partner purified
pIC50: −log10 of the molar value.
property_name: pIC50

input: Query (binder): recombinant human C5a protein (rh-C5a) (ligand, source: expressed and purified according to a previously described protocol (Paczkowski et al., 1999)) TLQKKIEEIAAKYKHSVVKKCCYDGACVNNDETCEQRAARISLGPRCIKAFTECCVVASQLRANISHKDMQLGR ; field requested: pIC50
output: ~6.60
